Listing: IC90 of selected compounds
Test system: Botrtyis cinerea (Bc)
Test: Growth inhibition assay of fungal pathogens
Assay type: cell-based
Details: 48 h, Table 4b, read-out: Concentration at 90% Inhibition Bc
Record the value in µg/mL, omitting the unit from your answer.

// known answers, use as guide
Ask | Give the reported value of IC90 for this record: COc1ccc(F)cc1[C@@H](O)Cn1c(=O)n(C(C)(C)C(=O)NC(C)C)c(=O)c2c(C)c(-n3cccn3)sc21
Reply | 2

Ask | Give the reported value of IC90 for this record: COc1ccccc1[C@H](Cn1c(=O)n(C(C)(C)C(=O)N2CCCC2)c(=O)c2c(C)c(-n3cccn3)sc21)OC(C)C
Reply | 2

Please examine the following record next.
Ask | Give the reported value of IC90 for this record: COc1ccc(F)cc1[C@H](Cn1c(=O)n(C(C)(C)C(=O)NC(C)C)c(=O)c2c(C)c(-n3cccn3)sc21)OCCO
Reply | 2

---

Target: UniProt O00763
Experiment: In vitro Acetyl-CoA Carboxylase (ACC) inhibition assay (ADP-Glo), hACC2
Type: biochemical
endpoint: IC50

Ask | Write down measured IC50 (UniProt O00763) for this compound. COc1ccc(F)cc1[C@H](Cn1c(=O)n(C(C)C(N)=O)c(=O)c2c(C)c(-n3cccn3)sc21)OCC(C)(C)O (stereo partly drawn)
Reply | 10 to 40 nM

Ask | Write down measured IC50 (UniProt O00763) for this compound. COc1ccc(F)cc1[C@H](Cn1c(=O)n(C(C)(C)C(=O)NC(C)C)c(=O)c2c(C)c(-n3cccn3)sc21)OC1CCC(=O)CC1
Reply | 3 to 10 nM

Ask | Write down measured IC50 (UniProt O00763) for this compound. COc1ccccc1[C@H](Cn1c(=O)n(C(C)(C)C(N)=O)c(=O)c2c(C)c(-n3cccn3)sc21)OCC(C)C
Reply | 3 to 10 nM

***
Ask | Write down measured IC50 (UniProt O00763) for this compound. COCCO[C@@H](Cn1c(=O)n(C(C)(C)C(=O)NC(C)C)c(=O)c2c(C)c(-n3cccn3)sc21)c1cc(F)ccc1OC
Reply | 10 to 40 nM

Ask | Write down measured IC50 (UniProt O00763) for this compound. COc1ccc(F)cc1[C@H](Cn1c(=O)n(C(C)(C)C(=O)NC(C)C)c(=O)c2c(C)c(-n3cccn3)sc21)OCCC#N
Reply | 10 to 40 nM

Ask | Write down measured IC50 (UniProt O00763) for this compound. COCCOc1ccc(F)cc1[C@H](Cn1c(=O)n(C(C)(C)C(N)=O)c(=O)c2c(C)c(-n3cccn3)sc21)OC(C)C
Reply | 3 to 10 nM

---

Listing: IC90 of selected molecules
System: Botrtyis cinerea (Bc)
Assay: Growth inhibition assay of fungal pathogens
Assay type: cell-based
Conditions: 48 h, Table 4a, read-out: Concentration at 90% Inhibition Bc
Record the value in µg/mL, omitting the unit from your answer.

Ask | Give the reported value of IC90 for this record: COc1ccc(F)cc1[C@H](Cn1c(=O)n(C(C)(C)C(=O)NC(C)C)c(=O)c2c(C)c(-n3cccn3)sc21)OC1CCOCC1
Reply | 2

***
Ask | Give the reported value of IC90 for this record: COc1ccc(F)cc1[C@H](Cn1c(=O)n(C(C)(C)C(=O)NC(C)C)c(=O)c2c(C)c(-n3cccn3)sc21)OC[C@H](C)O
Reply | 2

Ask | Give the reported value of IC90 for this record: COc1ccc(F)cc1[C@H](Cn1c(=O)n(C(C)(C)C(=O)N2CCCC2)c(=O)c2c(C)c(-n3cccn3)sc21)OC[C@@H](C)O
Reply | 2

Ask | Give the reported value of IC90 for this record: COc1ccc(F)cc1[C@H](Cn1c(=O)n([C@H](C)C(=O)NC(C)C)c(=O)c2c(C)c(-n3cccn3)sc21)OC(C)C
Reply | 2

Ask | Give the reported value of IC90 for this record: COc1ccc(F)cc1[C@H](Cn1c(=O)n(C(C)(C)C(=O)NC(C)C)c(=O)c2c(C)c(-n3cccn3)sc21)O[C@H]1CC[C@@H](O)CC1
Reply | 0.4

---

What follows is a collection of pIC50 values obtained with human (hACC2) ACC2 (Homo sapiens, UniProt O00763).
Sequence (O00763 whole entry): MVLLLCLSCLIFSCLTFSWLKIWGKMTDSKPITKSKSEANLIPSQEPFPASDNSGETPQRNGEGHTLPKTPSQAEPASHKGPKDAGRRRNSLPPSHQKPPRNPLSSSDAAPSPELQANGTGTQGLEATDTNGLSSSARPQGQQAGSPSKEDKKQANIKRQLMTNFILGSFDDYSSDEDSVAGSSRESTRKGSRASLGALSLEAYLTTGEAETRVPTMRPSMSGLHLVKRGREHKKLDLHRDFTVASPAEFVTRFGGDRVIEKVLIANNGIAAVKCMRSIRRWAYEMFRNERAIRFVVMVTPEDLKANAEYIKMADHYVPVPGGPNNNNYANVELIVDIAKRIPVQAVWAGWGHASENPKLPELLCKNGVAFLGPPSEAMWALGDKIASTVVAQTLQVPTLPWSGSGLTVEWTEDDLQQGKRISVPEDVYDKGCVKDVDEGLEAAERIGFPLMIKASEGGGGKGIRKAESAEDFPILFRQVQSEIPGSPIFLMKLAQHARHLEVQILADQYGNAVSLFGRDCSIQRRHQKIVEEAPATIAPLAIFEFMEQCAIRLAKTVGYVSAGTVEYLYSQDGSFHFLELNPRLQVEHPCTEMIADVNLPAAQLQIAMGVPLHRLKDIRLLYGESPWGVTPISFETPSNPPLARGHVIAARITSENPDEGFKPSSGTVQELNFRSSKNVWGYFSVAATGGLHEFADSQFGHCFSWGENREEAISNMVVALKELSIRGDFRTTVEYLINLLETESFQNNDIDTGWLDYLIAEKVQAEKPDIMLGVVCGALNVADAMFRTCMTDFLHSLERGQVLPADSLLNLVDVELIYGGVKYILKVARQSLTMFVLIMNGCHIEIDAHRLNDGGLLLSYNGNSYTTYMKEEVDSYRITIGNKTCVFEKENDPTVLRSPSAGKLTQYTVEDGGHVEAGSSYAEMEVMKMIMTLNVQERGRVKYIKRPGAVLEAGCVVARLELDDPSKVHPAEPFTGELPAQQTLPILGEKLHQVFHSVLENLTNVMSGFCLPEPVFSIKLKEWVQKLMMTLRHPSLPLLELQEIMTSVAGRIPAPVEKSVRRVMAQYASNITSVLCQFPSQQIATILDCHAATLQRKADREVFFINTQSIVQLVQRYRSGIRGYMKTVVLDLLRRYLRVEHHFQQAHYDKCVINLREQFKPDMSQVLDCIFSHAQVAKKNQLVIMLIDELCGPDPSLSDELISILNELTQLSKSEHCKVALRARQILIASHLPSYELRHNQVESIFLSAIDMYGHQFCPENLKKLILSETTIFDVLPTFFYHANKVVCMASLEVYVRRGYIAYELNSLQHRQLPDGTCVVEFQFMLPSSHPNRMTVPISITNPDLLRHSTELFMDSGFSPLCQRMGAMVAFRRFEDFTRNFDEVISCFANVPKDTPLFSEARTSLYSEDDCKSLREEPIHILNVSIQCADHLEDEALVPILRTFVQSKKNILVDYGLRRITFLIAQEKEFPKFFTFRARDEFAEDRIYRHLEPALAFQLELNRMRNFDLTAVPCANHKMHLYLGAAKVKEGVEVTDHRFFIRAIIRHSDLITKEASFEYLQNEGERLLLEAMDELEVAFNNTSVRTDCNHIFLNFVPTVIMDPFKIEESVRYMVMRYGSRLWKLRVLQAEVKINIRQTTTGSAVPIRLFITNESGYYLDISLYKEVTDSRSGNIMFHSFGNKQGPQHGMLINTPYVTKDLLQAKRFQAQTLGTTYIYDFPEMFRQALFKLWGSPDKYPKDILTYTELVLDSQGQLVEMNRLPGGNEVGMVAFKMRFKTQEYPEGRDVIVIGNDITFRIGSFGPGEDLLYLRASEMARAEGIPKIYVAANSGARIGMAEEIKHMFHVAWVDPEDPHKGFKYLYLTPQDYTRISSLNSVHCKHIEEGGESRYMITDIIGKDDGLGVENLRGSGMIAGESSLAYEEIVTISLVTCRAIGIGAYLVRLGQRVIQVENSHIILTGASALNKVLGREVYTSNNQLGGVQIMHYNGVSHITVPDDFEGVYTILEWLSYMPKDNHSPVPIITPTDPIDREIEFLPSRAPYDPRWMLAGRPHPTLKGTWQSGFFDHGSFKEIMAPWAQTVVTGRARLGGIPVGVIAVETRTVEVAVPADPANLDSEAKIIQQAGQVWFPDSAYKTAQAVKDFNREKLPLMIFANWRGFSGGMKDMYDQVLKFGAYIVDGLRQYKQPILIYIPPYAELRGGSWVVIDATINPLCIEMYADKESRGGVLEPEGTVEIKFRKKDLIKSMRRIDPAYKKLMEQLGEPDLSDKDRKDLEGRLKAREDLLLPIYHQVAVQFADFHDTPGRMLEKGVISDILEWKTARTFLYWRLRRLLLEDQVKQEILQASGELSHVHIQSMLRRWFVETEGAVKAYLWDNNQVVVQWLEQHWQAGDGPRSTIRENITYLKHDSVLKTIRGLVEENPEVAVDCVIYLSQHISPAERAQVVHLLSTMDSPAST
pIC50: −log10 of the molar value.

// known answers, use as guide
Ask | Write down measured pIC50 (human (hACC2) ACC2 (Homo sapiens, UniProt O00763)) for this molecule. COCCCO[C@@H](Cn1c(=O)n(C(C)C(=O)NC(C)C)c(=O)c2c(C)c(-n3cccn3)sc21)c1cc(F)ccc1OC (stereo partly drawn)
Reply | 7.40 to 8.00

Ask | Write down measured pIC50 (human (hACC2) ACC2 (Homo sapiens, UniProt O00763)) for this molecule. COc1ccc(F)cc1[C@H](Cn1c(=O)n(C(C)(C)C(=O)N2CCCC2)c(=O)c2c(C)c(-n3cccn3)sc21)O[C@H]1CC[C@@H](O)CC1
Reply | 8.00 to 8.52

Ask | Write down measured pIC50 (human (hACC2) ACC2 (Homo sapiens, UniProt O00763)) for this molecule. COCCOc1ccc(F)cc1[C@H](Cn1c(=O)n(C(C)(C)C(=O)N2CCCC2)c(=O)c2c(C)c(-n3cccn3)sc21)OC1CCOCC1
Reply | 8.00 to 8.52

Ask | Write down measured pIC50 (human (hACC2) ACC2 (Homo sapiens, UniProt O00763)) for this molecule. COc1ccc(F)cc1[C@H](Cn1c(=O)n(C(C)(C)C(=O)N2CCCC2)c(=O)c2c(C)c(-n3cccn3)sc21)OC[C@H](C)O
Reply | 7.40 to 8.00

***
Ask | Write down measured pIC50 (human (hACC2) ACC2 (Homo sapiens, UniProt O00763)) for this molecule. COc1ccc(F)cc1[C@H](Cn1c(=O)n(C(C)C(=O)O)c(=O)c2c(C)c(-n3cccn3)sc21)OCC(C)(C)O (stereo partly drawn)
Reply | 8.00 to 8.52

Ask | Write down measured pIC50 (human (hACC2) ACC2 (Homo sapiens, UniProt O00763)) for this molecule. COc1ccccc1[C@H](Cn1c(=O)n(C(C)(C)C(=O)N2CCCC2)c(=O)c2c(C)c(-n3cccn3)sc21)OCCC#N
Reply | 7.40 to 8.00

---

System: Fusarium virguliforme (Fv)
Experiment: Growth inhibition assay of fungal pathogens
Type: cell-based
Settings: 48 h, Table 4b, 48 hours, read-out: Concentration at 90% Inhibition Fv
Listing: IC90 of selected compounds

Ask | Give the reported value of IC90 for this record: COc1ccc(F)cc1[C@H](Cn1c(=O)n(CC(=O)N2CCCC2)c(=O)c2c(C)c(-n3cccn3)sc21)OC(C)C [Compound I-28]
Reply | 2 µg/mL

Ask | Give the reported value of IC90 for this record: COCCO[C@@H](Cn1c(=O)n([C@@H](C)C(=O)N2CCCC2)c(=O)c2c(C)c(-n3cccn3)sc21)c1cc(F)ccc1OC [Compound I-75]
Reply | 0.4 µg/mL

Ask | Give the reported value of IC90 for this record: COCCO[C@@H](Cn1c(=O)n([C@H](C)C(=O)N2CCCC2)c(=O)c2c(C)c(-n3cccn3)sc21)c1cc(F)ccc1OC [Compound I-76]
Reply | > 50 µg/mL

Ask | Give the reported value of IC90 for this record: COc1ccccc1[C@H](Cn1c(=O)n(C(C)(C)C(N)=O)c(=O)c2c(C)c(-n3cccn3)sc21)OCC(C)C [Compound I-20]
Reply | > 50 µg/mL

***
Ask | Give the reported value of IC90 for this record: COc1ccc(F)cc1[C@H](Cn1c(=O)n(C(C)(C)C(N)=O)c(=O)c2c(C)c(-n3cccn3)sc21)OC1CCOCC1 [Compound I-4]
Reply | > 50 µg/mL

Ask | Give the reported value of IC90 for this record: COCCO[C@@H](Cn1c(=O)n(C(C)(C)C(=O)N2CCCC2)c(=O)c2c(C)c(-n3cccn3)sc21)c1cc(F)ccc1OC [Compound I-44]
Reply | 10 µg/mL

Ask | Give the reported value of IC90 for this record: COc1ccccc1[C@H](Cn1c(=O)n(C(C)(C)C(=O)N2CCCC2)c(=O)c2c(C)c(-n3cccn3)sc21)OCC(C)C [Compound I-22]
Reply | 10 µg/mL

Ask | Give the reported value of IC90 for this record: COc1ccc(F)cc1[C@H](Cn1c(=O)n(C(C)(C)C(=O)N2CCCC2)c(=O)c2c(C)c(-n3cccn3)sc21)O[C@H]1CC[C@@H](O)CC1 [Compound I-15]
Reply | 2 µg/mL

Ask | Give the reported value of IC90 for this record: COc1ccc(F)cc1[C@H](Cn1c(=O)n(C(C)C(=O)N2CCCC2)c(=O)c2c(C)c(-n3cccn3)sc21)OC(C)C (stereo partly shown) [Compound I-32]
Reply | 0.4 µg/mL

Ask | Give the reported value of IC90 for this record: COc1ccc(F)cc1[C@@H](O)Cn1c(=O)n(C(C)(C)C(=O)O)c(=O)c2c(C)c(-n3cccn3)sc21 [Compound I-85]
Reply | > 50 µg/mL

Ask | Give the reported value of IC90 for this record: COc1ccc(F)cc1[C@H](Cn1c(=O)n(C(C)(C)C(=O)N2CCCC2)c(=O)c2c(C)c(-n3cccn3)sc21)OCCC#N [Compound I-81]
Reply | 0.4 µg/mL

Ask | Give the reported value of IC90 for this record: COc1ccc(F)cc1[C@H](Cn1c(=O)n(C(C)(C)C(=O)N2CCCC2)c(=O)c2c(C)c(-n3cccn3)sc21)OC(C)C [Compound I-24]
Reply | 0.4 µg/mL

Ask | Give the reported value of IC90 for this record: COc1ccccc1[C@H](Cn1c(=O)n(C(C)(C)C(=O)O)c(=O)c2c(C)c(-n3cccn3)sc21)OCCC#N [Compound I-79]
Reply | 0.4 µg/mL
